- Test Details: Plasma concentration in Sprague-Dawley rat at 30 mg/kg, po measured after 6 hrs by LC-MS/MS analysis
Assay Readout: concentration at 6 h
Record the result as a number with its unit.

Exercise: Fill in: concentration at 6 h of CC(C)C(=O)N1CCC(C[C@@H](c2nc3ccc(F)cc3n2C2CC2)N2C(=O)CN(c3ccc(Oc4ccc(F)cc4)cc3)C2=O)CC1 is ___
Key: 2480 ng/mL

----------
- Experimental Parameters: rat, in vivo, iv, 1 mg/kg, 6 h
Assay Readout: AUC

Exercise: Fill in: AUC of CC(C)C(=O)N1CCC(C[C@@H](c2nc3ccc(F)cc3n2C2CC2)N2C(=O)CN(c3ccc(Oc4ccc(F)cc4)cc3)C2=O)CC1 is ___
Key: 937 ng·h/mL

----------
- Test Details: in vivo
- Experimental Parameters: Sprague-Dawley, rat, po, 30 mg/kg
Each entry below carries its recorded bioavailability at 6 h.
Numeric only. Scale: %

Smiles Entry | bioavailability at 6 h (%)
COc1ccc(Oc2ccc(N3CC(=O)N([C@@H](CC4CCN(C(=O)C(C)C)CC4)c4nc5ccc(C)cc5n4C)C3=O)cc2)cc1 | 18

Moving on to another compound below.
Exercise: Fill in: bioavailability at 6 h of CC(C)C(=O)N1CCC(C[C@@H](c2nc3ccc(F)cc3n2C2CC2)N2C(=O)CN(c3ccc(Oc4ccc(F)cc4)cc3)C2=O)CC1 is ___
Key: 55.4

----------
Each entry below carries its recorded remaining at 0.5 h, 1 ug/ml.
- Test Details: Metabolic stability in rat liver microsomes assessed as compound remaining at 1 ug/ml incubated for 30 mins by LC-MS/MS analysis
- Experimental Parameters: at 1 µg/mL
Numeric only. Scale: %

Smiles Entry | remaining at 0.5 h, 1 ug/ml, %
COc1ccc(Oc2ccc(N3CC(=O)N([C@@H](CC4CCN(C(=O)C(C)C)CC4)c4nc5ccc(C)cc5n4C)C3=O)cc2)cc1 | 12.1

Moving on to another compound below.
Exercise: Fill in: remaining at 0.5 h, 1 ug/ml of CC(C)C(=O)N1CCC(C[C@@H](c2nc3ccc(F)cc3n2C2CC2)N2C(=O)CN(c3ccc(Oc4ccc(F)cc4)cc3)C2=O)CC1 is ___
Key: 84.4

----------
- Test Details: in vivo
- Experimental Parameters: Sprague-Dawley, rat, po, 30 mg/kg
Assay Readout: AUC(0-t) at 6 h (ng·h/mL)
Numeric only. Scale: ng·h/mL

Exercise: Fill in: AUC(0-t) at 6 h of CC(C)C(=O)N1CCC(C[C@@H](c2nc3ccc(F)cc3n2C2CC2)N2C(=O)CN(c3ccc(Oc4ccc(F)cc4)cc3)C2=O)CC1 is ___
Key: 15600

----------
- Test Details: in vivo
- Experimental Parameters: Sprague-Dawley, rat, po, 30 mg/kg
Assay Readout: Tmax at 6 h (h)
Numeric only. Scale: h

Smiles Entry | Value Unit | Tmax at 6 h
CC(C)C(=O)N1CCC(C[C@@H](c2nc3ccc(F)cc3n2C2CC2)N2C(=O)CN(c3ccc(Oc4ccc(F)cc4)cc3)C2=O)CC1 | h | 3

Moving on to another molecule below.
Exercise: Fill in: Tmax at 6 h of COc1ccc(Oc2ccc(N3CC(=O)N([C@@H](CC4CCN(C(=O)C(C)C)CC4)c4nc5ccc(C)cc5n4C)C3=O)cc2)cc1 is ___
Key: 2

----------
- Test Details: Metabolic stability in mouse liver microsomes assessed as compound remaining at 1 ug/ml incubated for 30 mins by LC-MS/MS analysis
- Experimental Parameters: at 1 µg/mL
Assay Readout: remaining at 0.5 h, 1 ug/ml
Record the result as a number with its unit.

As a guide, the following entries are already answered.
Smiles Entry | remaining at 0.5 h, 1 ug/ml
COc1ccc(Oc2ccc(N3CC(=O)N([C@@H](CC4CCN(C(=O)C(C)C)CC4)c4nc5ccc(C)cc5n4C)C3=O)cc2)cc1 | 2.4%
Cc1ccc2nc([C@H](CC3CCN(C(=O)C(C)C)CC3)N3C(=O)CN(c4ccc(Oc5ccc(F)cc5)cc4)C3=O)n(C)c2c1 | 10.6%
CC(C)C(=O)N1CCC(C[C@@H](c2nc3ccccc3n2C2CC2)N2C(=O)CN(c3ccc(Oc4ccc(F)cc4)cc3)C2=O)CC1 | 29.4%

Exercise: Fill in: remaining at 0.5 h, 1 ug/ml of CC(C)C(=O)N1CCC(C[C@@H](c2nc3ccc(F)cc3n2C2CC2)N2C(=O)CN(c3ccc(Oc4ccc(F)cc4)cc3)C2=O)CC1 is ___
Key: 54%

----------
Each entry below carries its recorded Cmax at 6 h.
- Test Details: in vivo
- Experimental Parameters: Sprague-Dawley, rat, po, 30 mg/kg
Numeric only. Scale: ng/mL

Smiles Entry | Value Unit | Reported Value
CC(C)C(=O)N1CCC(C[C@@H](c2nc3ccc(F)cc3n2C2CC2)N2C(=O)CN(c3ccc(Oc4ccc(F)cc4)cc3)C2=O)CC1 | ng/mL | 2850

Exercise: Fill in: Cmax at 6 h of COc1ccc(Oc2ccc(N3CC(=O)N([C@@H](CC4CCN(C(=O)C(C)C)CC4)c4nc5ccc(C)cc5n4C)C3=O)cc2)cc1 is ___
Key: 483

----------
- Tgt: UniProt Q96RI1
- Sequence (Q96RI1 whole entry): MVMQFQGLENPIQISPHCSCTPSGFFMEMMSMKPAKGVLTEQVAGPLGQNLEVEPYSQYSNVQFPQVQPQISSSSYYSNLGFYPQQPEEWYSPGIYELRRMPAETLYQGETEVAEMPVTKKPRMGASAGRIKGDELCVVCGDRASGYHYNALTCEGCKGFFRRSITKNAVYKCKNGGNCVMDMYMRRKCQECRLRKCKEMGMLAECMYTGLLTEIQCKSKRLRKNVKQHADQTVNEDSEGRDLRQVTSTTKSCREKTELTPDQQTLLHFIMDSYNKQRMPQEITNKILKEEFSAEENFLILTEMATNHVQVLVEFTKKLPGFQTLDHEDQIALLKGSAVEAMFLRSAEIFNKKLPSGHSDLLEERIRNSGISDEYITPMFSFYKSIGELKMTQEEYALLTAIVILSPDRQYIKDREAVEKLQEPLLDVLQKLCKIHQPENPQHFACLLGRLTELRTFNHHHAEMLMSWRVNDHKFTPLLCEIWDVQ
- Test Details: Antagonist activity at recombinant GST-tagged FXR LBD (unknown origin) assessed as inhibition of GW4064-induced Fluorecein-SRC2-2 coactivator peptide recruitment by LanthaScreen TR-FRET co-regulator assay
Assay Readout: pIC50
pIC50 (log units): -log10 of the concentration in mol/L.

Exercise: Fill in: pIC50 of CC(C)C(=O)N1CCC(C[C@@H](c2nc3ccccc3n2C2CC2)N2C(=O)CN(c3ccc(Oc4ccc(F)cc4)cc3)C2=O)CC1 is ___
Key: 6.85

----------
- Tgt: Bile acid receptor (Homo sapiens)
- Test Details: Antagonist activity against recombinant human FXR transfected in human HuH-7 cells co-transfected with FRE-luciferase assessed as reduction in CDCA-induced luciferase expression incubated for 24 hrs by luciferase reporter gene assay
Assay Readout: pIC50
pIC50 (log units): -log10 of the concentration in mol/L.

Exercise: Fill in: pIC50 of CC(C)C(=O)N1CCC(C[C@@H](c2nc3ccccc3n2C2CC2)N2C(=O)CN(c3ccc(Oc4ccc(F)cc4)cc3)C2=O)CC1 is ___
Key: 8.74
